Target: UniProtKB P36888
Sequence (P36888 whole entry): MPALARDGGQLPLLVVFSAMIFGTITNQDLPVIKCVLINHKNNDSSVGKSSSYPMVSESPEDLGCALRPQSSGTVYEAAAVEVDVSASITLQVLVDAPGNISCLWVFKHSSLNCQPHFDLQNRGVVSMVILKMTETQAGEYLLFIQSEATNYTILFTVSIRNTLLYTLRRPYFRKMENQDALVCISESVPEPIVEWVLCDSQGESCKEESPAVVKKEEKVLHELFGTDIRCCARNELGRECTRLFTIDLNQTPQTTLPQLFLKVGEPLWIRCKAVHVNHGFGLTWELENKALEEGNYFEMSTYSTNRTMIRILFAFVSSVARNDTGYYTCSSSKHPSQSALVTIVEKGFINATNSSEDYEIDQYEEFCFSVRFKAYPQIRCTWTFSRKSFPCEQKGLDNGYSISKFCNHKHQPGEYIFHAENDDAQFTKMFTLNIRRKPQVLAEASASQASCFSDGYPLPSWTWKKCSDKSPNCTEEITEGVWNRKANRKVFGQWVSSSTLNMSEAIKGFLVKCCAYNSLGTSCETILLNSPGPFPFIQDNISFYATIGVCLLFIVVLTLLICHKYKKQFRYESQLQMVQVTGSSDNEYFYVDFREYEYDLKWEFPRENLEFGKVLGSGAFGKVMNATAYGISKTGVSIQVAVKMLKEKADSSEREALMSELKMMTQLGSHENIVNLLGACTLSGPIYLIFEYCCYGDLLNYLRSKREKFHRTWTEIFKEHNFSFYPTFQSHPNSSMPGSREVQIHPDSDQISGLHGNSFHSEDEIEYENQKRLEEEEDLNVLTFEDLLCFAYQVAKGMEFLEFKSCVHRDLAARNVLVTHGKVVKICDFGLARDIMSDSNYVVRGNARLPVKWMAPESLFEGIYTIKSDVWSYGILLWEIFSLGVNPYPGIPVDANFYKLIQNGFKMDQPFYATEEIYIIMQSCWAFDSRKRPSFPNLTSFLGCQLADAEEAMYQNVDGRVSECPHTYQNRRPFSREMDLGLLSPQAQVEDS
observable: IC50 (nM)
Entry rule: numbers only, all in nM.

Ask | // lookup IC50 for "Cc1cnc(Nc2ccc(N3CCN(C)CC3)cc2)nc1Nc1cccc(S(=O)(=O)NC(C)(C)C)c1"
Reply | 17
